B1: tRNA (parent)
chain: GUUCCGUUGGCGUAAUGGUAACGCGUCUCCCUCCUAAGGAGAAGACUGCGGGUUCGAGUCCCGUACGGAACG

Variants of: B1
test_description: yeast fitness relative to wild type (ratio to wild type); higher = fitter; tRNA-Arg(CCU), competitive growth, 37 C, YPD
This sample holds only a part of the variants without activity.
Here the recorded yeast fitness is given for each entry.
Please reply with the value in numeric form only.

Worked examples follow.
mutation_notation	yeast fitness
G9A C11G C55G G63C G67C	0.578
C4U U13A C46U U53A	0.633
C24U G44A C66A	0.563
G12A G50C	0.757
A40G C62A	0.641

Notebook: U8C C30G , yeast fitness read as 0.674

Lab book: yeast fitness of C55G A70C noted as 0.566

Note to self: yeast fitness recorded for G10C C46A G68C was 0.57
